Attribute: Rf
method notes: Retardation factor in 1-butanol-acetic acid-water at 4:1:5 ratio by TLC
Format: physicochemical
measurement context: buffer
Field format: numeric only.

molecule smiles: CCCCCCCCCCCCNCCCC[C@@H](NC(=O)[C@H](Cc1ccc(O)cc1)NC(=O)[C@H](CO)NC(=O)[C@H](Cc1c[nH]c2ccccc12)NC(=O)[C@H](Cc1cnc[nH]1)NC(=O)[C@@H]1CCC(=O)N1)C(=O)N[C@@H](CC(C)C)C(=O)N[C@@H](CCCNC(=N)N)C(=O)N1CCC[C@H]1C(=O)NCC(N)=O
Rf: 0.4

molecule smiles: CCCCCCCCCCCCNCCC[C@@H](NC(=O)[C@H](Cc1ccc(O)cc1)NC(=O)[C@H](CO)NC(=O)[C@H](Cc1c[nH]c2ccccc12)NC(=O)[C@H](Cc1cnc[nH]1)NC(=O)[C@@H]1CCC(=O)N1)C(=O)N[C@@H](CC(C)C)C(=O)N[C@@H](CCCNC(=N)N)C(=O)N1CCC[C@H]1C(=O)NCC(N)=O
Rf: 0.4

molecule smiles: CC(C)C[C@H](NC(=O)[C@@H](CCCN)NC(=O)[C@H](Cc1ccc(O)cc1)NC(=O)[C@H](CO)NC(=O)[C@H](Cc1c[nH]c2ccccc12)NC(=O)[C@H](Cc1cnc[nH]1)NC(=O)[C@@H]1CCC(=O)N1)C(=O)N[C@@H](CCCNC(=N)N)C(=O)N1CCC[C@H]1C(=O)NCC(N)=O
Rf: 0.35

molecule smiles: CCCCCCCCCCCCNCCCC[C@@H](NC(=O)[C@H](Cc1ccc(O)cc1)NC(=O)[C@H](CO)NC(=O)[C@H](Cc1c[nH]c2ccccc12)NC(=O)[C@@H]1CCC(=O)N1)C(=O)N[C@@H](CC(C)C)C(=O)N[C@@H](CCCNC(=N)N)C(=O)N1CCC[C@H]1C(=O)NCC
Rf: 0.63

molecule smiles: CCCCCCCCCCCCNCCCC[C@@H](NC(=O)[C@H](Cc1ccc(O)cc1)NC(=O)[C@H](CO)NC(=O)[C@H](Cc1c[nH]c2ccccc12)NC(=O)[C@@H]1CCC(=O)N1)C(=O)N[C@@H](CC(C)C)C(=O)N[C@@H](CCCNC(=N)N)C(=O)N1CCC[C@H]1C(=O)NCC(N)=O
Rf: 0.52

Record CC(=O)NCCC[C@@H](NC(=O)[C@H](Cc1ccc(O)cc1)NC(=O)[C@H](CO)NC(=O)[C@H](Cc1c[nH]c2ccccc12)NC(=O)[C@H](Cc1cnc[nH]1)NC(=O)[C@@H]1CCC(=O)N1)C(=O)N[C@@H](CC(C)C)C(=O)N[C@@H](CCCNC(=N)N)C(=O)N1CCC[C@H]1C(=O)NCC(N)=O . Reported Rf: 0.38

The compound CCNC(=O)[C@@H]1CCCN1C(=O)[C@H](CCCNC(=N)N)NC(=O)[C@H](CC(C)C)NC(=O)[C@@H](CCCN)NC(=O)[C@H](Cc1ccc(O)cc1)NC(=O)[C@H](CO)NC(=O)[C@H](Cc1c[nH]c2ccccc12)NC(=O)[C@@H]1CCC(=O)N1 showed Rf equal to 0.54

###

method notes: Retardation factor in 1-butanol-ethyl acetate-acetic acid-water at 1:1:1:1 ratio by TLC
Assay type: physicochemical
measurement context: buffer
*1 amine or outer side, *2 acyl side, *3 side chain or, on linkers, in order; H or OH if unused. Where a SMILES comes first, the peptide text is derived from it. [ ]: non-standard residue; d: D form. X1 = CCCCCCCCCCCCNCCC[C@@H](N[*:1])C(=O)[*:2]; pGlu = O=C1CC[C@@H](C(=O)O)N1
Rf listing for selected compounds.
Answer with the value's number alone.

compound: CC(=O)NCCC[C@@H](NC(=O)[C@H](Cc1ccc(O)cc1)NC(=O)[C@H](CO)NC(=O)[C@H](Cc1c[nH]c2ccccc12)NC(=O)[C@H](Cc1cnc[nH]1)NC(=O)[C@@H]1CCC(=O)N1)C(=O)N[C@@H](CC(C)C)C(=O)N[C@@H](CCCNC(=N)N)C(=O)N1CCC[C@H]1C(=O)NCC(N)=O
result: 0.7
//
compound: CCNC(=O)[C@@H]1CCCN1C(=O)[C@H](CCCNC(=N)N)NC(=O)[C@H](CC(C)C)NC(=O)[C@@H](CCCCN)NC(=O)[C@H](Cc1ccc(O)cc1)NC(=O)[C@H](CO)NC(=O)[C@H](Cc1c[nH]c2ccccc12)NC(=O)[C@@H]1CCC(=O)N1
result: 0.76
//
compound: CCCCCCCCCCCCNCCC[C@@H](NC(=O)[C@H](Cc1ccc(O)cc1)NC(=O)[C@H](CO)NC(=O)[C@H](Cc1c[nH]c2ccccc12)NC(=O)[C@@H]1CCC(=O)N1)C(=O)N[C@@H](CC(C)C)C(=O)N[C@@H](CCCNC(=N)N)C(=O)N1CCC[C@H]1C(=O)NCC(N)=O ([pGlu]WSY[X1]LRPG-NH2)
result: 0.78

Now look at this one.
Form field Rf, entry CC(C)C[C@H](NC(=O)[C@@H](CCCCN)NC(=O)[C@H](Cc1ccc(O)cc1)NC(=O)[C@H](CO)NC(=O)[C@H](Cc1c[nH]c2ccccc12)NC(=O)[C@@H]1CCC(=O)N1)C(=O)N[C@@H](CCCNC(=N)N)C(=O)N1CCC[C@H]1C(=O)NCC(N)=O ([pGlu]WSY[dK]LRPG-NH2) : 0.73

###

method notes: Retardation factor in ethyl acetate-pyridine-acetic acid-water at 5:5:1:3 ratio by TLC
Type: physicochemical
measurement context: buffer
Where a SMILES comes first, the peptide text is derived from it. [ ]: non-standard residue; d: D form. pGlu = O=C1CC[C@@H](C(=O)O)N1
result type: Rf
Respond numerically, and do not add a unit to the figure.

Input CC(C)C[C@H](NC(=O)[C@@H](CCCCN)NC(=O)[C@H](Cc1ccc(O)cc1)NC(=O)[C@H](CO)NC(=O)[C@H](Cc1c[nH]c2ccccc12)NC(=O)[C@@H]1CCC(=O)N1)C(=O)N[C@@H](CCCNC(=N)N)C(=O)N1CCC[C@H]1C(=O)NCC(N)=O ([pGlu]WSY[dK]LRPG-NH2) . Output Rf: 0.71

Lab book: Rf of CCCCCCCCCCCCNCCC[C@@H](NC(=O)[C@H](Cc1ccc(O)cc1)NC(=O)[C@H](CO)NC(=O)[C@H](Cc1c[nH]c2ccccc12)NC(=O)[C@H](Cc1cnc[nH]1)NC(=O)[C@@H]1CCC(=O)N1)C(=O)N[C@@H](CC(C)C)C(=O)N[C@@H](CCCNC(=N)N)C(=O)N1CCC[C@H]1C(=O)NCC(N)=O noted as 0.34

# compound CCNC(=O)[C@@H]1CCCN1C(=O)[C@H](CCCNC(=N)N)NC(=O)[C@H](CC(C)C)NC(=O)[C@@H](CCCCN)NC(=O)[C@H](Cc1ccc(O)cc1)NC(=O)[C@H](CO)NC(=O)[C@H](Cc1c[nH]c2ccccc12)NC(=O)[C@@H]1CCC(=O)N1 ; its Rf = 0.71

Lab note: measured Rf of CC(C)C[C@H](NC(=O)[C@@H](CCCN)NC(=O)[C@H](Cc1ccc(O)cc1)NC(=O)[C@H](CO)NC(=O)[C@H](Cc1c[nH]c2ccccc12)NC(=O)[C@@H]1CCC(=O)N1)C(=O)N[C@@H](CCCNC(=N)N)C(=O)N1CCC[C@H]1C(=O)NCC(N)=O was 0.67

###

method notes: Retardation factor in 2-butanol-0.1 N acetic acid at 1:1 ratio by TLC
Format: physicochemical
Quick list: Rf per entry.

molecule smiles: CCNC(=O)[C@@H]1CCCN1C(=O)[C@H](CCCNC(=N)N)NC(=O)[C@H](CC(C)C)NC(=O)[C@@H](CCCN)NC(=O)[C@H](Cc1ccc(O)cc1)NC(=O)[C@H](CO)NC(=O)[C@H](Cc1c[nH]c2ccccc12)NC(=O)[C@H](Cc1cnc[nH]1)NC(=O)[C@@H]1CCC(=O)N1
Rf: 0.29
//
molecule smiles: CC(=O)NCCC[C@@H](NC(=O)[C@H](Cc1ccc(O)cc1)NC(=O)[C@H](CO)NC(=O)[C@H](Cc1c[nH]c2ccccc12)NC(=O)[C@H](Cc1cnc[nH]1)NC(=O)[C@@H]1CCC(=O)N1)C(=O)N[C@@H](CC(C)C)C(=O)N[C@@H](CCCNC(=N)N)C(=O)N1CCC[C@H]1C(=O)NCC(N)=O
Rf: 0.34
//
molecule smiles: CCCCCCCCCCCCNCCC[C@@H](NC(=O)[C@H](Cc1ccc(O)cc1)NC(=O)[C@H](CO)NC(=O)[C@H](Cc1c[nH]c2ccccc12)NC(=O)[C@H](Cc1cnc[nH]1)NC(=O)[C@@H]1CCC(=O)N1)C(=O)N[C@@H](CC(C)C)C(=O)N[C@@H](CCCNC(=N)N)C(=O)N1CCC[C@H]1C(=O)NCC
Rf: 0.43
//
molecule smiles: CC(C)C[C@H](NC(=O)[C@@H](CCCN)NC(=O)[C@H](Cc1ccc(O)cc1)NC(=O)[C@H](CO)NC(=O)[C@H](Cc1c[nH]c2ccccc12)NC(=O)[C@H](Cc1cnc[nH]1)NC(=O)[C@@H]1CCC(=O)N1)C(=O)N[C@@H](CCCNC(=N)N)C(=O)N1CCC[C@H]1C(=O)NCC(N)=O
Rf: 0.24
//
molecule smiles: CCCCCCCCCCCCNCCC[C@@H](NC(=O)[C@H](Cc1ccc(O)cc1)NC(=O)[C@H](CO)NC(=O)[C@H](Cc1c[nH]c2ccccc12)NC(=O)[C@H](Cc1cnc[nH]1)NC(=O)[C@@H]1CCC(=O)N1)C(=O)N[C@@H](CC(C)C)C(=O)N[C@@H](CCCNC(=N)N)C(=O)N1CCC[C@H]1C(=O)NCC(N)=O
Rf: 0.39

Value of Rf reported for the compound CCNC(=O)[C@@H]1CCCN1C(=O)[C@H](CCCNC(=N)N)NC(=O)[C@H](CC(C)C)NC(=O)[C@@H](CCCCN)NC(=O)[C@H](Cc1ccc(O)cc1)NC(=O)[C@H](CO)NC(=O)[C@H](Cc1c[nH]c2ccccc12)NC(=O)[C@@H]1CCC(=O)N1 is 0.35

Lab note: CC(C)C[C@H](NC(=O)[C@@H](CCCN)NC(=O)[C@H](Cc1ccc(O)cc1)NC(=O)[C@H](CO)NC(=O)[C@H](Cc1c[nH]c2ccccc12)NC(=O)[C@@H]1CCC(=O)N1)C(=O)N[C@@H](CCCNC(=N)N)C(=O)N1CCC[C@H]1C(=O)NCC(N)=O gave Rf of 0.31
